assay: PK study after intranasal administration; format: in vivo, mice; settings: female, Crl:CDI (ICR), mouse, plasma, other: intranasal, 32.4 μg, drug concentration in plasma, 30 min; repeated intranasal, 0.01 N HCl solution, 10 μL, mice
READOUT TYPE: concentration at 30 min

> print(dat)
                            smiles.notation    result
1  CSc1cc(C)nc(SC)c1NC(=O)CN1CCN(CCSc2nc3ccccc3[nH]2)CC1.Cl  33 ng/mL

----------
test: PK study after intranasal administration; assay type: in vivo, mice; details: female, ICR, mouse, plasma, inhaled or intranasal, 108 ug
READOUT TYPE: Tmax

> print(dat)
                            smiles.notation  readout.type  result
1  CSc1cc(C)nc(SC)c1NC(=O)CN1CCN(CCSc2nc3ccccc3[nH]2)CC1.Cl          Tmax   5 min

----------
test: PK study after oral administration; assay type: in vivo, mice; settings: female, ICR, mouse, cerebrum, po, 6 mg/kg
READOUT TYPE: Tmax (min)

> print(dat)
                                   compound  units.text  quantitative.readout
1  CSc1cc(C)nc(SC)c1NC(=O)CN1CCN(CCSc2nc3ccccc3[nH]2)CC1.Cl [K-604]         min                    15

----------
assay: PK study after oral administration; format: in vivo, mice; details: female, ICR, mouse, cerebellum, po, 6 mg/kg
READOUT TYPE: Cmax

> print(dat)
                                   compound  readout.type    result
1  CSc1cc(C)nc(SC)c1NC(=O)CN1CCN(CCSc2nc3ccccc3[nH]2)CC1.Cl [K-604]          Cmax  0.7 ng/g

----------
experiment: PK study after intranasal administration; format: in vivo, mice; conditions: female, ICR, mouse, olfactory bulb, inhaled or intranasal, 32.4 ug, Cmax, repeated (7 days) intranasal, 0.01 N HCl solution, 32.4 μg/10 μL, mice
READOUT TYPE: Cmax at 7 days (ng/g)

> print(dat)
                            smiles.notation  quantitative.readout
1  CSc1cc(C)nc(SC)c1NC(=O)CN1CCN(CCSc2nc3ccccc3[nH]2)CC1.Cl                   156

----------
experiment: PK study after intranasal administration; format: in vivo, mice; conditions: female, Crl:CD1 (ICR), mouse, olfactory bulb, inhaled or intranasal, 108 ug
READOUT TYPE: Tmax

> print(dat)
                            smiles.notation  readout.type  result
1  CSc1cc(C)nc(SC)c1NC(=O)CN1CCN(CCSc2nc3ccccc3[nH]2)CC1.Cl          Tmax  15 min

----------
assay: PK study after intranasal administration; type: in vivo, mice; conditions: female, ICR, mouse, cerebrum, inhaled or intranasal, 32.4 ug, Cmax, repeated (7 days) intranasal, 0.01 N HCl solution, 32.4 μg/10 μL, mice
READOUT TYPE: Cmax at 7 days (ng/g)

> print(dat)
                            smiles.notation  quantitative.readout
1  CSc1cc(C)nc(SC)c1NC(=O)CN1CCN(CCSc2nc3ccccc3[nH]2)CC1.Cl                    21

----------
experiment: PK study after intranasal administration; format: in vivo, mice; settings: female, Crl:CDI (ICR), mouse, plasma, other: intranasal, 162 μg, drug concentration in plasma, 5 min; repeated (7 days) intranasal, 0.01 N HCl solution, 50 μL, mice
READOUT TYPE: concentration at 5 min

> print(dat)
                            smiles.notation     result
1  CSc1cc(C)nc(SC)c1NC(=O)CN1CCN(CCSc2nc3ccccc3[nH]2)CC1.Cl  870 ng/mL

----------
experiment: Solubility studies of K-604 in different vehicles; assay type: physicochemical; details: HA aqueous solution (additive 5 mg), pH 3.8, thermodynamic from solid
READOUT TYPE: solubility at 24 h

> print(dat)
                            smiles.notation        readout.type      result
1  CSc1cc(C)nc(SC)c1NC(=O)CN1CCN(CCSc2nc3ccccc3[nH]2)CC1.Cl  solubility at 24 h  10.8 mg/mL

----------
test: PK study after intranasal administration; assay type: in vivo, mice; details: female, Crl:CDI (ICR), mouse, olfactory bulb, inhaled or intranasal, 162 ug, Cmax, olfactory bulb, single intranasal, 0.01 N HCl solution, 162 μg/50 μL, mice
READOUT TYPE: Cmax (ng/g)

> print(dat)
                            smiles.notation  quantitative.readout
1  CSc1cc(C)nc(SC)c1NC(=O)CN1CCN(CCSc2nc3ccccc3[nH]2)CC1.Cl                   406

----------
test: PK study after intranasal administration; type: in vivo, mice; settings: female, ICR, mouse, plasma, inhaled or intranasal, 108 ug, T1/2, plasma, single intranasal, GA solution, 108 μg/10 μL, mice
READOUT TYPE: half-life (min)

> print(dat)
                            smiles.notation  quantitative.readout
1  CSc1cc(C)nc(SC)c1NC(=O)CN1CCN(CCSc2nc3ccccc3[nH]2)CC1.Cl                  16.6

----------
test: PK study after intranasal administration; type: in vivo, mice; settings: female, Crl:CDI (ICR), mouse, cerebrum, inhaled or intranasal, 162 ug, Cmax, cerebrum, single intranasal, 0.01 N HCl solution, 162 μg/50 μL, mice
READOUT TYPE: Cmax (ng/g)

> print(dat)
                            smiles.notation  readout.type  quantitative.readout
1  CSc1cc(C)nc(SC)c1NC(=O)CN1CCN(CCSc2nc3ccccc3[nH]2)CC1.Cl          Cmax                    66

----------
assay: PK study after intranasal administration; type: in vivo, mice; conditions: female, Crl:CDI (ICR), mouse, olfactory bulb, inhaled or intranasal, 162 ug, Cmax, olfactory bulb, repeated (7 days) intranasal, 0.01 N HCl solution, 162 μg/50 μL, mice
READOUT TYPE: Cmax (ng/g)

> print(dat)
                            smiles.notation  quantitative.readout
1  CSc1cc(C)nc(SC)c1NC(=O)CN1CCN(CCSc2nc3ccccc3[nH]2)CC1.Cl                   285

----------
assay: PK study after intranasal administration; assay type: in vivo, mice; conditions: female, ICR, mouse, plasma, inhaled or intranasal, 108 ug, Cmax, single intranasal, GA solution, 108 μg/10 μL, mice
READOUT TYPE: Cmax (ng/mL)

> print(dat)
                            smiles.notation  units.text  quantitative.readout
1  CSc1cc(C)nc(SC)c1NC(=O)CN1CCN(CCSc2nc3ccccc3[nH]2)CC1.Cl       ng/mL                   217

----------
assay: PK study after intranasal administration; type: in vivo, mice; conditions: female, Crl:CDI (ICR), mouse, cerebrum, inhaled or intranasal, 162 ug, Cmax, cerebrum, repeated (7 days) intranasal, 0.01 N HCl solution, 162 μg/50 μL, mice
READOUT TYPE: Cmax

> print(dat)
                                   compound   result
1  CSc1cc(C)nc(SC)c1NC(=O)CN1CCN(CCSc2nc3ccccc3[nH]2)CC1.Cl [K-604]  83 ng/g

----------
experiment: PK study after intranasal administration; type: in vivo, mice; details: female, ICR, mouse, plasma, inhaled or intranasal, 108 ug, T1/2, plasma, single intranasal, CA solution, 108 μg/10 μL, mice
READOUT TYPE: half-life (min)

> print(dat)
                            smiles.notation  readout.type  units.text  quantitative.readout
1  CSc1cc(C)nc(SC)c1NC(=O)CN1CCN(CCSc2nc3ccccc3[nH]2)CC1.Cl     half-life         min                  13.4

----------
experiment: PK study after oral administration; format: in vivo, mice; settings: female, ICR, mouse, cerebrum, po, 6 mg/kg
READOUT TYPE: Cmax

> print(dat)
                            smiles.notation    result
1  CSc1cc(C)nc(SC)c1NC(=O)CN1CCN(CCSc2nc3ccccc3[nH]2)CC1.Cl  0.8 ng/g

----------
experiment: Solubility studies of K-604 in different vehicles; type: physicochemical; details: water, pH 6.8, water
READOUT TYPE: solubility

> print(dat)
                                   molecule    result
1  CSc1cc(C)nc(SC)c1NC(=O)CN1CCN(CCSc2nc3ccccc3[nH]2)CC1.Cl [K-604]  50 µg/mL
